tested on: Tov112D; test: Primary qHTS to identify gynecologic anti-cancer compounds using libraries of approved drugs and bioactive compounds (AID 1345084); conditions: Gynecologic cancer cell panel viability, ATPlite luminescence, 48 h; series mostly up to 57.5 µM; further: nearly all actives have a fitted effect of over 55% in size
Results filed as inconclusive are left out. The source made the active and inactive calls. The call rests on the fitted dose curve; in most records, active means well fitted cell-killing curve with a large enough effect; inconclusive means small, poorly fitted or top-dose-only effect, or effect the other way; inactive means flat fitted curve, though single readings scatter.
Form entry, call: pick from active, inactive

stdin: Hi team, can someone confirm the assay call for CC1(O)CCCC2(C)C1CCC13CC(CO)C(CCC12)C3 (centres undefined) ?
stdout: inactive

stdin: Another molecule: N#Cc1ccc2[nH]cc(CCCCN3CCN(c4ccc5oc(C(N)=O)cc5c4)CC3)c2c1
stdout: inactive

stdin: What do you have for NC(=O)c1cnc(NCCc2ccc(O)c(Cl)c2)nc1NCc1ccccc1 ?
stdout: active

stdin: How about CS(=O)(=O)NCC1CCC(Nc2nc3c(s2)CCSc2ccccc2-3)CC1 (centres undefined) ?
stdout: inactive

stdin: Likewise for C[C@@H]1[C@H]2[C@H](O[C@@H]3O[C@H](CO)[C@@H](O)[C@H](O)[C@H]3O)OC=C(C(=O)O)[C@H]2C[C@@H]1O ?
stdout: inactive

stdin: Lookup COc1cc(O)cc(C)c1C(=O)O[C@@H]1[C@H](O)[C@@H](CO)O[C@H]1n1ccc(=O)[nH]c1=O
stdout: inactive

stdin: Try this molecule next: O=S(=O)(NC1CCC(c2cc(F)ccc2F)(S(=O)(=O)c2ccc(Cl)cc2)CC1)C(F)(F)F (centres undefined)
stdout: inactive

stdin: Try this molecule too: Cc1nc(Nc2n[nH]c3c2CN(C(=O)NC(CN(C)C)c2ccccc2)C3(C)C)c2sccc2n1 (centres undefined)
stdout: active

stdin: Same for C(#Cc1nc2ncccc2nc1OCCN1CCCC1)c1ccccc1
stdout: active

stdin: Further, for Cc1c[nH]c2nccc(Oc3c(F)cc(Nc4cc(Cl)nc(N)n4)cc3F)c12 ?
stdout: active

stdin: Then c1ccc(-c2ncc(CN3CCN(c4ncccn4)CC3)[nH]2)cc1 ?
stdout: inactive

stdin: Now this one: COc1ncc(Nc2ncc([C@@H](C)N3CCN(S(C)(=O)=O)CC3)cc2-c2nc(C)nc(N)n2)cc1F
stdout: inactive

stdin: Repeat for the following molecule: CC(C)(C)C(=O)CN1C(=O)[C@H](NC(=O)Nc2cccc(C(=O)O)c2)CN(C2CCCCC2)c2ccccc21
stdout: inactive

stdin: # repeat for CC(=O)N1CCc2ccc(O)c(OC3OC(COC4OCC(O)(CO)C4O)C(O)C(O)C3O)c2C1Cc1ccc(O)cc1 (centres undefined)
stdout: inactive

* * *

test: Primary qHTS for inhibitors of nuclear receptor binding SET domain protein 2 (NSD2) in an RCH-ACV wild type WT cells (2C) (AID 1645877); settings: RCH-ACV (leukaemia line) NSD2 WT (2C) viability, CellTiter-Glo, 72 h; series mostly up to 44.9 µM; further: nearly all actives have a fitted effect of over 70% in size
Records with an inconclusive call do not appear. Calls of active or inactive are those of the source. Calls come from the whole dose curve; as a rule, active = well fitted inhibition curve with a large enough effect; inconclusive = small, poorly fitted or top-dose-only effect; inactive = no such curve, though single readings can be large or run the other way.
// one of active, inactive, no free text

stdin: Recorded test call requested for COc1cc2occc2c(O[C@@H]2O[C@H](CO)[C@@H](O)[C@H](O)[C@H]2O)c1CCC(=O)O
stdout: inactive

stdin: // repeat for FC(F)(F)c1ccc(Nc2nc(-c3c(C(F)(F)F)nc4ccccn34)cs2)cc1 and report
stdout: active

stdin: Next molecule: COC(=O)N1CCC(n2ncc3c(N4CCOCC4)nc(-c4ccc(NC(=O)Nc5ccc(CO)cc5)cc4)nc32)CC1
stdout: active

stdin: Now consider COC(=O)C[C@H]1C(C)(C)[C@H](OC(=O)C(C)C)[C@@]2(O)C(=O)[C@]1(C)C1CC[C@]3(C)C(CC(=O)O[C@H]3c3ccoc3)[C@]13O[C@@H]32 (some centres undefined) .
stdout: inactive

stdin: Do the same for C=C[C@]1(C)C[C@H](O)[C@@H]2[C@H](OC(=O)[C@@H]2C)C1/C(C)=C/O[C@@H]1O[C@H](CO)[C@@H](O)[C@H](O)[C@H]1O (some centres undefined) please
stdout: inactive

stdin: What about this molecule? NC(=O)[C@H]1CCS[C@@H]2C[C@]3(CCCN3C(=O)Cc3ccc(NC(=O)COc4ccc(Cl)cc4Cl)cc3)C(=O)N12
stdout: active

stdin: Here is the next molecule: O=C(O)c1ccccc1NC(=O)N1CCC(c2ccccc2C(F)(F)F)CC1
stdout: inactive

stdin: For O=S(=O)(c1ccc(S(=O)(=O)n2cnc3ccccc32)cc1)N1CCCCCC1 then?
stdout: inactive

stdin: // same read-out, input: C=C1CCCC2(C)CC3(OC)OC(=O)C(C)=C3CC12 (centres undefined)
stdout: inactive

stdin: Try this molecule too: Cc1cc(C(=O)N2CCCCc3ccccc32)ccc1CNC(=O)N1CCC[C@H]1C(=O)N(C)C
stdout: inactive

stdin: Field entry: CC(=O)c1ccc(O[C@@H]2O[C@H](CO)[C@@H](O)[C@H](O)[C@H]2O)cc1
stdout: inactive

stdin: Try this molecule next: O=C(NCc1ccccn1)Nc1nnc(-c2ccco2)o1
stdout: inactive

stdin: Please answer likewise for CC(C)CC1NC(=O)C2CC3(O)c4ccccc4NC3N2C1=O (centres undefined)
stdout: inactive

stdin: Same again, this time with COc1ccc(C(=O)C2CCN(CC(=O)N(Cc3nc4c(c(=O)[nH]3)COCC4)CC3CC3)CC2)cc1
stdout: inactive

stdin: And what about the molecule O=C(O)c1c(O)c(-c2ccccc2)nc2ccccc12 ?
stdout: inactive

stdin: What do you have for O=C(OC[C@@]1(O)CO[C@@H](O[C@H]2[C@H](Oc3ccc(O)cc3)O[C@H](CO)[C@@H](O)[C@@H]2O)[C@@H]1O)c1ccc(O)cc1 ?
stdout: inactive

stdin: # iterate: CC(=O)C12OC(C)(C)OC1CC1C3CCC4=CC(=O)C=CC4(C)C3(F)C(O)CC12C (centres undefined)
stdout: active

stdin: Another molecule to check: CCC1C(=O)N(C)c2cnc(Nc3ccc(C(=O)NC4CCC(N5CCN(CC6CC6)CC5)CC4)cc3OC)nc2N1C(C)C (centres undefined)
stdout: active

stdin: // same read-out, input: COc1ccc(CNC(=O)c2cc(-c3cncc(C)c3)ncc2-c2nccs2)nc1OC
stdout: inactive

stdin: Likewise for C[C@@H]1N[C@H]2N(C1=O)c1ccccc1[C@@]2(O)C[C@@H]1C(=O)N[C@@H](C)c2nc3ccccc3c(=O)n21 ?
stdout: inactive

stdin: Further, for NCCCNc1ccc(Nc2nccc(Nc3cc(C4CC4)[nH]n3)n2)cc1 ?
stdout: active

stdin: What do you get for CNC(=O)c1ccccc1Nc1nc(Nc2ccc3c(c2OC)CCCC(N2CCN(CCO)CC2)C3)ncc1Cl (centres undefined) ?
stdout: active

stdin: Would you kindly repeat that for C[C@H]1CC[C@@H]2N(C1)C[C@@H]1[C@H]([C@@H](O)[C@H](O)[C@]3(O)[C@H]1C[C@@]14OC5(O)[C@@H](C[C@@H](O)[C@@H]31)[C@]4(C)CC[C@@H]5O)[C@]2(C)O ?
stdout: inactive

stdin: Queued: CCCN1CCN(c2ccc(C(=O)NC3(C(=O)NCC#N)CCCCC3)cc2)CC1
stdout: inactive

stdin: What do you have for CC(C)Oc1ccc(C(=O)NC(CNC(=O)CN(C)C)Cc2ccc(-c3cn4cccc(C(C)O)c4n3)cc2)cc1Cl (centres undefined) ?
stdout: active

stdin: // repeat for COc1ccc(-c2ccc(-c3cn(C(=O)N4CCCCC4c4ccccc4)nn3)cc2)cc1 (centres undefined) and report
stdout: inactive

stdin: Similarly, O=C(/C=C/c1ccc(O)cc1)N[C@@H](Cc1ccc(O)cc1)C(=O)O ?
stdout: inactive

stdin: Moving on to the next molecule: O=C1N=C(N2CCOCC2)CN1c1ccc(Cl)cc1
stdout: inactive

stdin: Proceed to C=C(C)C1Cc2cc(C(=O)OC3OC(CO)C(O)C(O)C3O)ccc2O1 (centres undefined)
stdout: inactive

stdin: Also need CC1C=CC2CCCCC2C1CCC1CC(O)CC(=O)O1 (centres undefined) , thanks.
stdout: inactive

stdin: Same for CC(Cc1cc2c(c(C(N)=O)c1)N(CCCO)CC2)NCCOc1ccccc1OCC(F)(F)F (centres undefined)
stdout: inactive

stdin: Repeat for the following molecule: Nc1ccc(-c2cccc3c(=O)cc(N4CCOCC4)oc23)cc1
stdout: active

stdin: Try this molecule too: COc1ccccc1Oc1ccc(N(Cc2cccnc2)S(=O)(=O)CC(F)(F)F)cc1
stdout: inactive

stdin: How about this molecule: CC(=O)O[C@@H]1[C@@H](O)[C@H](O[C@H]2CC[C@]34C[C@]35CC[C@]3(C)[C@@H]([C@@]6(C)CC[C@@H](C(C)(C)O)O6)[C@@H](O)C[C@@]3(C)[C@@H]5C[C@H](O[C@@H]3O[C@H](CO)[C@@H](O)[C@H](O)[C@H]3O)[C@H]4C2(C)C)OC[C@H]1O
stdout: inactive
